The origin of these recorded values is patent US10738031B2.

biological target: human Orexin 1 receptor (Homo sapiens, UniProt O43613); construct: stably expressing the full-length human Orexin 1 receptor; expressed in transfected cells; host or cells: CHO-K1 (CHO-K1/hOX1), co-expressing aequorin; assay: Assay A: OX1R IP1 (in vitro OX1R potency); type: cell-based
Sequence (O43613 whole entry): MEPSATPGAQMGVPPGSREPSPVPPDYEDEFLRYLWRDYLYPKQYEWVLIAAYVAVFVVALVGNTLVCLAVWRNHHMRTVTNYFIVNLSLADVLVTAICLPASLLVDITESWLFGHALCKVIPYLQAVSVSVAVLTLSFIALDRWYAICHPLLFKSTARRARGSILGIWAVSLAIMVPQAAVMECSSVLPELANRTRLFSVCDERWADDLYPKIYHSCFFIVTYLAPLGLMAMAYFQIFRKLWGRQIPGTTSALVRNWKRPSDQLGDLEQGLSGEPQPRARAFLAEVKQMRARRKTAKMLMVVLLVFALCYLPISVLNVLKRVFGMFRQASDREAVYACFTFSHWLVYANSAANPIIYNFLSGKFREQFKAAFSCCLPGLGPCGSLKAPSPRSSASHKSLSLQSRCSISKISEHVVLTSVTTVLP
# strict inequality: OX2R Kb/OX1R Kb < 400 yields met, everything else yields not met

CCN(C(=O)c1ccc(OC)nc1-c1ccn(C)n1)[C@@H](C)COc1ccc(C(F)(F)F)cn1 | not met
CCN(C(=O)c1cnccc1-n1nccn1)[C@@H](C)COc1ccc(Cl)cn1 | met

I wonder whether `CCN(C(=O)c1nc(C)ccc1-n1nccn1)[C@@H](C)COc1ccc(Cl)cn1` has OX2R Kb/OX1R Kb below 400. Can you tell?
met

Hello, I'm reviewing records and need to know if OX2R Kb/OX1R Kb of `CCN(C(=O)c1nc(C)ccc1-c1ncccn1)[C@@H](C)COc1cnc(C(F)(F)F)cn1` is below 400. Could you check?
met

OX2R Kb/OX1R Kb strictly < 400 for this compound? `CCN(C(=O)c1nc(C)ccc1-n1nccn1)[C@@H](C)COc1cnc(C(F)(F)F)cn1`
met

Decide: OX2R Kb/OX1R Kb of `CCN(C(=O)c1nccc(C(F)(F)F)c1-c1ccn(C)n1)[C@@H](C)COc1ccc(C(F)(F)F)cn1` strictly below 400?
met

Is OX2R Kb/OX1R Kb strictly under 400 for the entry `CCN(C(=O)c1cc(OC)cnc1-n1nccn1)[C@@H](C)COc1ccc(Cl)cn1` ?
met

# strict comparison: is reported OX2R Kb/OX1R Kb < 400? input = `CCN(C(=O)c1ccc(C)nc1-n1nccn1)[C@@H](C)COc1ncc(C(F)(F)F)cn1`
not met

----------
molecular target: human Orexin 1 receptor (Homo sapiens); construct: stably expressing the full-length human Orexin 1 receptor; expressed in transfected cells; host or cells: CHO-K1 (CHO-K1/hOX1), co-expressing aequorin; assay: Assay A: OX1R IP1 (in vitro OX1R potency); format: cell-based
REPORTED_PROPERTY: OX2R Kb/OX1R Kb
Answers are plain numbers.

Study these solved cases before continuing.
CCN(C(=O)c1ncc(C)cc1-n1cccn1)[C@@H](C)COc1ccc(C(F)(F)F)cn1 | 688
CCN(C(=O)c1cc(C(F)(F)F)cnc1-n1cccn1)[C@@H](C)COc1ccc(C(F)(F)F)cn1 | 177
CCN(C(=O)c1cc(F)cnc1-c1nnc(C)o1)[C@@H](C)COc1ccc(C(F)(F)F)cn1 | 214
CCN(C(=O)c1nc(C)ccc1-n1nccn1)[C@@H](C)COc1ncc(C(F)(F)F)cc1F | 268
CCN(C(=O)c1ncccc1-c1ccccc1)[C@@H](C)COc1ncc(C(F)(F)F)cn1 | 157
CCN(C(=O)c1cnc(C)nc1-c1ccccc1)[C@@H](C)COc1ncc(C(F)(F)F)cn1 | 860
CCN(C(=O)c1ccncc1-n1cccn1)[C@@H](C)COc1ccc(C(F)(F)F)cn1 | 120

Specify OX2R Kb/OX1R Kb for `CCN(C(=O)c1cnccc1-n1nccn1)[C@@H](C)COc1ncc(C(F)(F)F)cc1F` and stop.
210

----------
Target: human orexin 2 receptor (Homo sapiens)
Construct: stably expressing the full-length human orexin 2 receptor; expressed in transfected cells; host or cells: CHO-K1 (CHO-K1/hOX2), co-expressing aequorin
Sequence (O43614 whole entry): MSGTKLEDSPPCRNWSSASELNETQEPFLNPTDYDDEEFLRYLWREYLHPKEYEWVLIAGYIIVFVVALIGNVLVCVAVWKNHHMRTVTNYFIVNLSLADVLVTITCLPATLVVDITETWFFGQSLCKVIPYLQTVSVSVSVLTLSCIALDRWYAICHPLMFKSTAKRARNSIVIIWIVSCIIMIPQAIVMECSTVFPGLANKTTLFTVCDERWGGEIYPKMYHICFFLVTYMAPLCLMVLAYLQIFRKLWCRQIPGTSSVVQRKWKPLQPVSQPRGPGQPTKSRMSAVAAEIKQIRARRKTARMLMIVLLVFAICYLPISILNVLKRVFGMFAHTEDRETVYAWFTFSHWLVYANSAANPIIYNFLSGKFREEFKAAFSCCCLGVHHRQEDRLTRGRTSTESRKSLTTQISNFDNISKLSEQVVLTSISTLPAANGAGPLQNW
Test: Assay B: OX2R IP1 (in vitro OX2R potency)
Assay type: cell-based
Conditions: Table 3; 0.5 nM Orexin A concentration
Procedure: Activation of the orexin receptors expressed in cell lines results in an increase in intracellular IP3 concentration. IP1, a downstream metabolite of IP3, accumulates in cells following receptor activation and is stable in the presence of LiCl. Using Homogeneous Time-Resolved Fluorescence technology with Lumi4-Tb cryptate (commercially available from Cisbio Bioassay.) and a suitable fluorescence plate reader. […] The ratio between the emission at 665 nm and 615 is calculated by the reader. […]
Kindly supply the reported Kb values for the records listed here.
One number for each entry, in µM.

CCN(C(=O)c1cc(OC)cnc1-n1nccn1)[C@@H](C)COc1ncc(C(F)(F)F)cc1F | 0.578
CCN(C(=O)c1cc(C(F)(F)F)cnc1-n1cccn1)[C@@H](C)COc1ccc(C(F)(F)F)cn1 | 0.212
CCN(C(=O)c1cccnc1-n1nccn1)[C@@H](C)COc1ccc(Cl)cn1 | 1.14
CCN(C(=O)c1cc(F)cnc1-c1ncccn1)[C@@H](C)COc1ccc(C(F)(F)F)cn1 | 1.04
CCN(C(=O)c1ccc(OC)nc1-c1ccn(C)n1)[C@@H](C)COc1ccc(C(F)(F)F)cn1 | 0.106
CCN(C(=O)c1cc(OC)cnc1-n1nccn1)[C@@H](C)COc1ccc(Cl)cn1 | 0.325

Give Kb for all molecules that follow.
1. CCN(C(=O)c1ncccc1-c1ccccc1)[C@@H](C)COc1ncc(C(F)(F)F)cn1
2. CCN(C(=O)c1ncccc1-n1nccn1)[C@@H](C)COc1ccc(C(F)(F)F)cn1
3. CCN(C(=O)c1cnccc1-n1nccn1)[C@@H](C)COc1ccc(C(F)(F)F)cn1
4. CCN(C(=O)c1cc(F)cnc1-c1ncccn1)[C@@H](C)COc1cnc(C(F)(F)F)cn1
5. CCN(C(=O)c1ccc(C)nc1-n1nccn1)[C@@H](C)COc1ccc(C(F)(F)F)cn1
6. CCN(C(=O)c1ccc(C(F)(F)F)nc1-c1ccn(C)n1)[C@@H](C)COc1ccc(C(F)(F)F)cn1
7. CCN(C(=O)c1ncc(C)cc1-n1cccn1)[C@@H](C)COc1ccc(C(F)(F)F)cn1
8. CCN(C(=O)c1ccncc1-c1ccn(C)n1)[C@@H](C)COc1ccc(C(F)(F)F)cn1

0.705
0.267
0.24
6.65
0.356
0.705
0.275
1.6

The following molecules each have a reported value; give each one's Kb.
1. CCN(C(=O)c1ncc(F)cc1-c1ccn(C)n1)[C@@H](C)COc1ccc(C(F)(F)F)cn1
2. CCN(C(=O)c1cnc(C)nc1-c1ccccc1)[C@@H](C)COc1cnc(C(F)(F)F)cn1
3. CC[C@@H](CNc1ccc(C(F)(F)F)cn1)N(CC)C(=O)c1nc(C)ccc1-n1nccn1 [Ex 71 in WO2016/ 034882, reference compound]
4. CCN(C(=O)c1cc(OC)cnc1-n1nccn1)[C@@H](C)COc1ccc(C(F)(F)F)cn1
5. CCN(C(=O)c1ncccc1-c1ccn(C)n1)[C@@H](C)COc1ccc(C(F)(F)F)cn1

0.802
0.939
0.027
0.26
0.285

Go through the list and state Kb for each entry.
1. CCN(C(=O)c1nc(C)ccc1-n1nccn1)[C@@H](C)COc1ccc(Cl)cn1
2. CCN(C(=O)c1ccc(C)nc1-n1nccn1)[C@@H](C)COc1ncc(C(F)(F)F)cn1
3. CCN(C(=O)c1nc(C)ccc1-n1nccn1)[C@@H](C)COc1cnc(C(F)(F)F)cn1
4. CCN(C(=O)c1cc(F)cnc1-n1nccn1)[C@@H](C)COc1ccc(Cl)cn1
5. CCN(C(=O)c1cc(F)cnc1-c1nnc(C)o1)[C@@H](C)COc1ccc(C(F)(F)F)cn1

[0.071, 3.59, 0.749, 1.01, 6.64]

Using the record for `CCN(C(=O)c1cc(F)cnc1-c1ncccn1)[C@@H](C)COc1ncc(C(F)(F)F)cc1F` , state its measured Kb.
3.25
